Biological target: human PD-L1 / Human PD-1 (Homo sapiens (Human), UniProt Q9NZQ7)
Sequence (Q9NZQ7 19-239): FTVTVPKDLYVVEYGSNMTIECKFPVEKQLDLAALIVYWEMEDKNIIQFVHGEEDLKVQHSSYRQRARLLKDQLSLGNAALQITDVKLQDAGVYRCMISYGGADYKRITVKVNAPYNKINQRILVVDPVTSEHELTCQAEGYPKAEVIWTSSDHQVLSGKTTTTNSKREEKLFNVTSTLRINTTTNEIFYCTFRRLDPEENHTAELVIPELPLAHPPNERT
Test: Enzyme-Linked Immunosorbent Assay (ELISA), PD-1/PD-L1 binding
Details: plates coated with human PD-L1, biotinylated human PD-1 added
pIC50: −log10 of the molar value.
Reported pIC50 values for a set of compounds
measured.parameter: pIC50

compound	reported
Cc1c(OCCCN2CCC(F)CC2)cccc1-c1cccc(-c2ccc(CN(C)C)cc2Cl)c1C [Compd 1.095]	5.00 to 6.00
COc1cc(-c2cccc(-c3cccc(-n4ccnc4)c3C)c2C)cc(F)c1CN1CC(C(=O)O)C1 [Compd 1.006]	5.00 to 6.00
COc1cc(-c2cccc(-c3cccc(-c4ccc5c(c4)CCNC5)c3C)c2C)cc(F)c1CNCCO [Compd 1.040]	> 6.00
Cc1c(OCCCN2CCCC2(C)C)cccc1-c1cccc(-c2ccc3c(c2)CCNC3)c1C [Compd 1.105]	> 6.00
COc1cc(-c2cccc(-c3cccc(-c4cc(F)c(CN(C)C)c(OC)c4)c3C)c2C)cc(F)c1CNCCO [Compd 1.050]	> 6.00
Cc1c(OCCCN2[C@H](C)CC[C@H]2C)cccc1-c1cccc(-c2ccc(C(C)(C)N)cc2)c1C [Compd 1.119]	> 6.00
Cc1c(OCCCN2[C@H](C)CC[C@H]2C)cccc1-c1cccc(-c2ccc3c(c2)CNC3)c1C [Compd 1.120]	> 6.00
COc1cc(-c2cccc(-c3cccc(-c4ccc(CN)c(F)c4)c3C)c2C)cc(F)c1CN [Compd 1.037]	> 6.00
Cc1c(OCCCN2[C@H](C)CC[C@H]2C)cccc1-c1cccc(-c2ccc(CNCCCC(=O)O)cc2)c1C [Compd 1.100]	> 6.00
Cc1c(-c2ccc3c(c2)CCNC3)cccc1-c1cccc(OCCCN2[C@H](C)CC[C@H]2C)c1Cl [Compd 1.092]	> 6.00
Cc1c(OCCCN2CCC(F)CC2)cccc1-c1cccc(-c2ccc(CN3CCCC[C@H]3C(=O)O)cc2)c1C [Compd 1.071]	5.00 to 6.00
Cc1c(OCCCN2[C@H](C)CC[C@H]2C)cccc1-c1cccc(-c2ccc([C@H](C)N)cc2)c1C [Compd 1.098]	> 6.00
Cc1c(OCCCN2CCC(F)CC2)cccc1-c1cccc(-c2ccc(CN(C)C)c(Cl)c2)c1C [Compd 1.081]	> 6.00
Cc1c(OCCCN2[C@H](C)CC[C@H]2C)cccc1-c1cccc(-c2ccc(CN(C)C)c(OC(C)C)c2)c1C [Compd 1.074]	> 6.00
Cc1c(-c2ccc(CN)cc2)cccc1-c1ccc2c(c1)OCCO2 [Compd 1.127]	5.00 to 6.00
Cc1c(OCCCN2CC3(CC(O)C3)C2)cccc1-c1cccc(-c2ccc3c(c2)CCNC3)c1C [Compd 1.109]	> 6.00
Cc1c(-c2ccc3c(c2)CCNC3)cccc1-c1ccc2c(c1)OCCO2 [Compd 1.126]	> 6.00
Cc1c(OCCCN2CCC(F)CC2)cccc1-c1cccc(-c2ccc(CN)cc2)c1C [Compd 1.077]	> 6.00
COc1cc(CNCCCC(=O)O)cc(-c2cccc(-c3cccc(OCCCN4[C@H](C)CC[C@H]4C)c3C)c2C)c1 [Compd 1.065]	5.00 to 6.00
COc1cc(-c2cccc(-c3cccc(OCCCN4CCC(F)CC4)c3C)c2C)ccc1CN(C)C [Compd 1.094]	> 6.00
COc1cc(-c2cccc(-c3cccc(-c4cc(F)c(CN5CCC(O)CC5)c(OC)c4)c3C)c2C)cc(F)c1CN1CCC(O)CC1 [Compd 1.043]	> 6.00
Cc1c(OCCCN2CCC2(C)C)cccc1-c1cccc(-c2ccc3c(c2)CCNC3)c1 [Compd 1.103]	5.00 to 6.00
